- targetOfAssay: Hexose transporter 1 (Plasmodium falciparum)
- experimentDescription: ST_JUDE_LEISH: Cytotoxicity at 2uM final concentration against transgenic Leishmania Mexicana promastigotes LmPfHT that are glucose transport deficient and complemented with the Plasmodium falciparum hexose transporter. Activity is measured by DNA content using SYBR green in vitro
- Type: functional
reportedProperty: inhibition (%)
Numbers only, in %.

Below, each entry is followed by its recorded inhibition result.
[[record]]
compound = "CC1CN(c2ccc(NC(=O)c3ccsc3)cc2C(=O)N2CCN(Cc3ccc(C(C)(C)C)cc3)CC2)CC(C)O1 (stereo not drawn)"
targetofassay = "Hexose transporter 1 (Plasmodium falciparum)"
reportedproperty = "inhibition"
unitdescriptor = "%"
obsvalue = 1.1

[[record]]
compound = "Cc1noc(C)c1C(=O)N1CCCC(c2[nH]c3c(C)cccc3c2-c2ccncc2)C1 (stereo not drawn)"
targetofassay = "Hexose transporter 1 (Plasmodium falciparum)"
reportedproperty = "inhibition"
unitdescriptor = "%"
obsvalue = 3

[[record]]
compound = "N=c1c2nc(-c3c(F)cccc3Cl)[nH]c(=O)c2[nH]c(=O)n1-c1ccccc1"
targetofassay = "Hexose transporter 1 (Plasmodium falciparum)"
reportedproperty = "inhibition"
unitdescriptor = "%"
obsvalue = 11.5

[[record]]
compound = "COc1ccc(CC2(c3ccc(F)cc3)N=C(N)N(CCCc3cccnc3)C2=O)cc1 (stereo not drawn)"
targetofassay = "Hexose transporter 1 (Plasmodium falciparum)"
reportedproperty = "inhibition"
unitdescriptor = "%"
obsvalue = 1.49

[[record]]
compound = "Cc1cccc2nc(-c3cccc(-c4ccc(NC(=O)Nc5cccc(C#N)c5)cc4)c3)[nH]c12"
targetofassay = "Hexose transporter 1 (Plasmodium falciparum)"
reportedproperty = "inhibition"
unitdescriptor = "%"
obsvalue = 2.03


Would you be so kind as to report inhibition for each listed record?
1. CC(C)C[C@H](NC(=O)c1cccc(F)c1)C(=O)N[C@H](/C=N/NC(=O)c1ccccc1)CCc1ccccc1
2. COc1cc(C=NNc2ccnc3cc(Cl)ccc23)ccc1O
3. N#Cc1ccccc1S(=O)(=O)N1CCCC(CNC(=O)[C@H](CC2CCCCC2)NC(=O)c2cc3ccccc3s2)C1 (stereo partly drawn)
4. Cn1nccc1C(=O)NCCNCc1cccc(-c2ccc(-c3nc4cc(C(F)(F)F)ccc4[nH]3)cc2)c1

## Output
1. 3.32
2. 2.62
3. 2.15
4. -1.43

For every item in the list below, what is its measured inhibition?
1. Cc1cc(N[C@@H](CC(C)C)C(=O)NCCc2ccccc2)nc(NCCc2ccc(F)cc2)n1
2. CCOc1ccc(C2CCN(CCCCNC(=O)c3ccc(NC(=O)c4ccc(Cl)cc4)cc3)CC2)c(Cl)c1
3. Cc1ccccc1CNc1noc(-c2c(F)cccc2Cl)n1
4. CS(=O)(=O)n1c(CN2CCN(c3ncc(C(F)(F)F)cc3Cl)CC2)nc2ccccc21
5. O=C(NCCCCN1CCC(c2ccc3c(c2OCC2CC2)CCCC3)CC1)c1ccc(NC(=O)c2ccc(Cl)cc2)cc1

## Output
1. 0.66
2. 4.55
3. 5.55
4. 7.91
5. 6.44

Hey, quick one: what's inhibition for each of these?
1. Cc1c2c(nn1-c1ccccc1)C(c1ccccc1)N(c1ccccc1)C2=O (stereo not drawn)
2. COc1ccc(COc2c(OC)cc(Cc3cnc(N)nc3N)cc2OC)cc1

## Output
0.43
5.76

Can you give me inhibition for all of these, one by one?
1. c1csc(-c2nc(N3CCCC3)ncc2-c2ccsc2)n1
2. Cc1ccc2ncc(Cl)c(CCN3CCC(NCc4ccc5c(n4)NC(=O)CS5)CC3)c2n1
3. N#Cc1ccc(CNCCCCCCNCc2ccc(C#N)c3ccccc23)c2ccccc12
4. CNC(=O)c1cnc(Nc2ccc(N3CCN(C)CC3)cc2)nc1Nc1ccccc1OC

## Output
1: -0.18; 2: 4.54; 3: 1.12; 4: 4.09

###

Exercise: for every item that follows, state its recorded inhibition.
- targetOfAssay: Glucose transporter (Leishmania mexicana) (UniProt O61059)
- experimentDescription: ST_JUDE_LEISH: Cytotoxicity at 2uM final concentration against transgenic Leishmania Mexicana promastigotes LmGT2 that are glucose transport deficient and complemented with the L. Mexicana glucose transporter 2. Activity is measured by DNA content using SYBR green in vitro
- Assay type: functional
Give bare numbers, in %.

Below: 3 compounds and their reported inhibition.
[[record]]
compound = "CN1CCC(C(=O)Nc2cccc(-c3cccc(-c4nc5cc(F)ccc5[nH]4)c3)c2)CC1"
reportedproperty = "inhibition"
obsvalue = 6.69

[[record]]
compound = "Nc1ncnc2cc(-c3cccc(NC(=O)Nc4ccccc4)c3)sc12"
reportedproperty = "inhibition"
obsvalue = -1.3

[[record]]
compound = "CC(CCCCC(=O)Nc1ccc(C(F)(F)F)cc1)NCC(O)c1cccc(Cl)c1 (centres undefined)"
reportedproperty = "inhibition"
obsvalue = 1.56


Dear colleague, could you send me inhibition for each of the items below? Thanks.
1. O=C(CCNc1ccnc(NCCc2ccccc2)n1)Nc1ccccc1
2. COc1cc(-c2nc(-c3ccccc3)c(-c3ccccc3)[nH]2)ccc1OCCN(C)C

## Output
1: 2.66; 2: 0.91

Parameters: items (list). Returns: inhibition for each item.
1. Cc1cc(N[C@@H](Cc2ccccc2)C(=O)NCCOc2ccccc2)nc(NCC2CCCCC2)n1
2. O=C(Nc1cccc(-c2nc3ccccc3[nH]2)c1)c1ccc(-c2cccc([N+](=O)[O-])c2)o1
3. Cc1cccc2nc(-c3cccc(-c4ccc(NC(=O)C(C)C(=O)NC(C)C)cc4)c3)[nH]c12 (centres undefined)
4. COC(=O)c1cccc(CNCc2ccc(-c3ccc(-c4nc5cc(F)ccc5[nH]4)cc3)cc2)c1

## Output
1. 0.5
2. 7.27
3. 2.38
4. 4.98

###

Give measured inhibition for each item. Keep answers brief.
- targetOfAssay: Glucose transporter (Leishmania mexicana)
- experimentDescription: ST_JUDE_LEISH: Cytotoxicity at 2uM final concentration against transgenic Leishmania Mexicana promastigotes LmGT2 that are glucose transport deficient and complemented with the L. Mexicana glucose transporter 2. Activity is measured by DNA content using SYBR green in vitro
- Format: functional
Give bare numbers, in %.

Below: 5 compounds and their reported inhibition.
[[record]]
compound = "O=C(NCCN1CCOCC1)c1ccc(-c2ccc(CNCCCc3ccccc3)cc2)nc1"
obsvalue = -0.47

[[record]]
compound = "N#CC(c1ccc(Br)cc1)c1ccc2c(C(F)(F)F)cc(C(F)(F)F)nc2n1 (stereo not given)"
obsvalue = 0.48

[[record]]
compound = "OCC1CCN(Cc2ccc(-c3ccc(-c4nc5cc(F)ccc5[nH]4)cc3)cc2)CC1"
obsvalue = 4.78

[[record]]
compound = "Cc1ccc(N(CCC(=N)N)Cc2ccccc2)cc1"
obsvalue = 4.68

[[record]]
compound = "Cc1ccc(OC2CCN(CCCCC3(C)C(=O)Nc4ccccc43)CC2)cc1 (stereo not given)"
obsvalue = 9.07


Count: 5. Required value per item: inhibition.
1. COc1cc(Cc2cnc(N)nc2N)cc(OCCCCCC(N)=O)c1OC
2. c1ccc(Oc2ccc(Nc3ccnc(Nc4ccc5cn[nH]c5c4)n3)cc2)cc1
3. CCCC1N=C(N)N=C(N)N1c1cccc(C(F)(F)F)c1 (stereo not given)
4. COc1ccc(Cc2cccc(C(C(=O)NCc3cc(Cl)cc(Cl)c3)N3CCN(C)CC3)c2)cc1 (stereo not given)
5. C[C@@H](CC1CCCCC1)NCc1cccc(NS(=O)(=O)c2ccc(O)c(-c3ccno3)c2)c1

## Output
1: 1.17; 2: 1.54; 3: 0.06; 4: 0.4; 5: 14.5

###

- targetOfAssay: Solute carrier family 2, facilitated glucose transporter member 1 (Homo sapiens) (UniProt P11166)
- Sequence (P11166 whole entry): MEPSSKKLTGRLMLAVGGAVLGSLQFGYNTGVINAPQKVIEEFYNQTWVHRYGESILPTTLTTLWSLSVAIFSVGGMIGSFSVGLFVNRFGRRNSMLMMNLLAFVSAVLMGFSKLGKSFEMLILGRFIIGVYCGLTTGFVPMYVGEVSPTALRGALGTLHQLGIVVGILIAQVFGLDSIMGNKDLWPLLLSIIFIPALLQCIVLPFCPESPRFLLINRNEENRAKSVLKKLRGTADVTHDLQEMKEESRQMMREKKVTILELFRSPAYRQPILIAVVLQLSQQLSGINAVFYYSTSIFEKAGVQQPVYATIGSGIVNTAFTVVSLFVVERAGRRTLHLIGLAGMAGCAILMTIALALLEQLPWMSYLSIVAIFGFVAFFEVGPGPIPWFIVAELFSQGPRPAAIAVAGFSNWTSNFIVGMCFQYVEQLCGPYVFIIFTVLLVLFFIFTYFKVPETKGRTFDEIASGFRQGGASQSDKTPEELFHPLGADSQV
- experimentDescription: ST_JUDE_LEISH: Cytotoxicity at 2uM final concentration against transgenic Leishmania Mexicana promastigotes LmGLUT1 that are glucose transport deficient and complemented with the human glucose transporter GLUT1. Activity is measured by DNA content using SYBR green in vitro
- Type: functional
For each of the molecules below, state its inhibition.
Give bare numbers, in %.

Reference set, count: 6
[[record]]
molecule = "Cc1cc(C)cc(N2C(N)=NC(N)=NC2(C)C)c1"
unitdescriptor = "%"
obsvalue = 7.13

[[record]]
molecule = "COc1ccc(C2=[N+]([O-])c3ccccc3C2=O)cc1"
unitdescriptor = "%"
obsvalue = 0.97

[[record]]
molecule = "O=C(Nc1ccc(OC2CCN(Cc3ccco3)C2)c(Cl)c1)c1ccc2ncccc2c1 (stereo not given)"
unitdescriptor = "%"
obsvalue = 0.4

[[record]]
molecule = "COc1cccc(-c2cc3c(NCc4ccncc4)nccc3s2)c1"
unitdescriptor = "%"
obsvalue = 3.12

[[record]]
molecule = "CC(C)C[C@H](Nc1ccnc(NCC2CCCCC2)n1)C(=O)Nc1ccccc1"
unitdescriptor = "%"
obsvalue = 3.81

[[record]]
molecule = "CN(C(=O)c1nn(-c2ccccn2)c2nccc(-c3cccs3)c12)C1CCCCC1"
unitdescriptor = "%"
obsvalue = 5.01


Provide reported inhibition for each item, in the same order as listed.
1. Cc1cc(NC(=O)Nc2ccc(I)c(OCCN(C)C)c2)ccc1Br
2. O=C(OCc1ccccn1)c1nc2ccccc2[nH]1
3. Cc1ccc(NC(=O)Nc2ccc(Cl)c(C(F)(F)F)c2)cc1-c1ccc(C(=O)NCCN2CCOCC2)cc1

## Output
10.5
0.81
8.1

## Input Given the molecule CC(C)C[C@@H](/C=N/N1CC(=O)NC1=O)NC(=O)[C@H](CC(C)C)NC(=O)c1ccc(OCCN2CCOCC2)cc1 , what is its reported inhibition?
## Output -0.34
